The measurements presented in this section are drawn from ChEMBL document CHEMBL5579889.

biological target: ATP-dependent Clp protease proteolytic subunit (Neisseria gonorrhoeae); assay: Binding affinity to His-tagged recombinant Neisseria gonorrhoeae ClpP extracted from Escherichia coli SG1146(DE3) using casein as substrate assessed as apparent dissociation constant incubated upto 120 mins by SDS-PAGE analysis; conditions: read-out: Kd(app)
Sequence (Q5F914 whole entry): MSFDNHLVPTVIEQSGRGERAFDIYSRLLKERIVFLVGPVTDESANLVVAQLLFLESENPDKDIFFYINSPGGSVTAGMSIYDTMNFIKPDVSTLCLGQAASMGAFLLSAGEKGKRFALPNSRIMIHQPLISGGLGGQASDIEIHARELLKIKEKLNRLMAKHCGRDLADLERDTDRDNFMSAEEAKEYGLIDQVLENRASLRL
Property measured: Kd (nM)
Kindly provide the numeric value in nM only, without the unit symbol.

// output Kd; input CC(C)(C(=O)NCCSc1ccccc1C(F)(F)F)P(=O)(c1ccc(C(F)(F)F)cn1)c1ccc(C(F)(F)F)cn1 ; system ATP-dependent Clp protease proteolytic subunit (Neisseria gonorrhoeae) 690

----------
target: ATP-dependent Clp protease proteolytic subunit (Escherichia coli (strain K12)); assay: Activation of N-terminal His-tagged recombinant Escherichia coli ClpP expressed in Escherichia coli SG1146(DE3) assessed as degradation of casein-FITC preincubated for 10 mins followed by casein addition measured for over 100 mins by fluorescence based assay
Sequence (P0A6G7 whole entry): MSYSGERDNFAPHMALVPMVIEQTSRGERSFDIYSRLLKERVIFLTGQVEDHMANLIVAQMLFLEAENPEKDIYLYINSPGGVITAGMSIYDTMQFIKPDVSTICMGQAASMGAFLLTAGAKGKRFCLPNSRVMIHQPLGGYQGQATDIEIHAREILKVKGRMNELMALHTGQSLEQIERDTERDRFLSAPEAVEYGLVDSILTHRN
Bridge positions count the residues as written; N and C are the ends. Square brackets hold non-standard residues; d marks the D form. Peptide text beside a SMILES is read from it. * marks the point of attachment. Phe(3,5-F2) = N[C@@H](Cc1cc(F)cc(F)c1)C(=O)O; Pro(4R-Me) = C[C@H]1CN[C@H](C(=O)O)C1; aThr = C[C@H](O)[C@H](N)C(=O)O; Pip = O=C(O)[C@@H]1CCCCN1; X1 = CCC/C=C/C=C/C(=O)*
Property measured: EC50 (µM)
Kindly provide the numeric value in µM only, without the unit symbol.

Reference set, count: 2
- CC(C(=O)NCCSc1ccccc1C(F)(F)F)P(=O)(c1ccc(C(F)(F)F)cc1)c1ccc(C(F)(F)F)cc1 (stereo not drawn): 4.45
- CC(C)(C(=O)NCCSc1ccccc1C(F)(F)F)P(=O)(c1ccc(C(F)(F)F)cn1)c1ccc(C(F)(F)F)cn1: 0.2

Turning now to a further molecule:
Input CCC/C=C/C=C/C(=O)N[C@@H](Cc1cc(F)cc(F)c1)C(=O)N[C@@H]1C(=O)N2CCC[C@H]2C(=O)N2CCCC[C@H]2C(=O)N[C@@H](C)C(=O)N2C[C@H](C)C[C@H]2C(=O)O[C@H]1C (X1-[Phe(3,5-F2)][aThr]P[Pip]A[Pro(4R-Me)]; ester 2-C) , output reported EC50. 4.69
